# measured-target: Albumin (Bos taurus) (UniProt P02769)
# Sequence (P02769 whole entry, looked up): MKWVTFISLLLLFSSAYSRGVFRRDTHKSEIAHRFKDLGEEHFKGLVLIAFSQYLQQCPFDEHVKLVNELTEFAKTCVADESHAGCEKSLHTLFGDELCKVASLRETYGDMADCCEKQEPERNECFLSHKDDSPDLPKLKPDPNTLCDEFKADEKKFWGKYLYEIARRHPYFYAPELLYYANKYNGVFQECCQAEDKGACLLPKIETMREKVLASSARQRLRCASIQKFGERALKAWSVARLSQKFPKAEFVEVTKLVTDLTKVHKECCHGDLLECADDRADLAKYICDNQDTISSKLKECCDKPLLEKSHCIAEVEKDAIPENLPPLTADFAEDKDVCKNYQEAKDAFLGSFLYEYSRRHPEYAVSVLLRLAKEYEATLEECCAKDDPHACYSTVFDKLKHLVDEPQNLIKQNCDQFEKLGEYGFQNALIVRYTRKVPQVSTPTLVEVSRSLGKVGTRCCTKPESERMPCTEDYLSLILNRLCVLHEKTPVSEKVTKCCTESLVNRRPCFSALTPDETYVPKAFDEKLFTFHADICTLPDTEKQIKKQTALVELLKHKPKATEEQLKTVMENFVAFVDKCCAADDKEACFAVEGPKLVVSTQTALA
# assay-method-text: compounds binding labelled BSA control protein – biochemical, small-molecule microarray, Alexa647 label, 635/667 nm fluorescence, artefact control for SMM control protein annotation, profiling panel (AID 1118);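 also: score merges 667 nm emission intensity and signal-to-noise per printed compound spot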
# conditions: BSA-A647 binding, fluorescence 635 nm, higher = more signal
readout-label: composite z-score

{"columns": ["compound", "experimental-value"],
 "data": [
  ["O=C1OCCC/C=C\\[C@H]2OC34C=CCN(Cn5nnc6ccccc65)C(=O)[C@H]3N(CCCO)C(=O)[C@@H]4C12 (stereo partly drawn)", -1.38],
  ["O=C(N1CCCCC1)[C@]1(CCS(=O)(=O)c2ccccc2)N=C(c2ccc(OCCCO)cc2)O[C@@H]1c1ccccc1", 0.431],
  ["CN(C)CCCC[C@@H]1NC(=O)[C@@H]2C[C@H](C(=O)NCCCCCCN)[C@H](c3ccc(O)cc3)N2C1=O", -0.254],
  ["CCCC[C@H]1OB(O)C[C@H]2C1=C(COc1ccccc1)C[C@H]1C(=O)N(Cc3ccccc3)C(=O)[C@H]12", 0.117],
  ["Cc1ccc(S[C@]2(C(=O)NCCCN(C)C)CC(=O)N(Cc3ccccc3)[C@@H]2c2ccc(CO)cc2)cc1", -0.173],
  ["CN1C(=O)C2C=CC(C(O)C=Cc3ccc([N+](=O)[O-])cc3)N(N3CCCCC3)C2C1=O (stereo not drawn)", 0.933],
  ["Cc1ccc([C@H]2C(C(=O)O)=C[C@@H](C(C)C)N2S(=O)(=O)c2ccc(C)cc2)cc1", 0.284],
  ["CC(=O)NCCCC[C@@H]1NC(=O)[C@@H]2C[C@H](C(=O)NCCCCCC[N+](C)(C)C)[C@H](c3cccc(OCCO)c3)N2C1=O", -0.384]
]}

* * *

# System: XIP peptide (Xip251-270) binding
# assay-method-text: XIP fragment 251-270 binding compounds – biochemical, small-molecule microarray, fluorescence 635/667 nm, 0.1 µg/mL protein, primary screen (AID 1182)
# conditions: fluorescent protein binding, 635 nm, higher = more signal, called active from +8 up or from −8 down
Classify as follows. Reported composite z-score greater than or equal to 0.8: true. Reported composite z-score below: false.

{"columns": ["compound", "assigned-category"],
 "data": [
  ["O=C(NCC(O)CO)[C@]1(CCS(=O)(=O)c2ccccc2)N=C(c2ccc(OCCCO)cc2)O[C@@H]1c1ccccc1 (stereo not given in full)", "true"],
  ["C=CC[C@@]1(C(=O)NCCN2CCOCC2)N=C(c2ccc(OCCCO)cc2)O[C@@H]1c1ccccc1CN=[N+]=[N-]", "true"],
  ["O=c1cccc(-c2ccc3ccccc3c2)o1", "false"],
  ["CN1C(=O)C2C=CC(C(O)c3ccc(Br)cc3)N(Nc3ccccc3)C2C1=O (stereo not given)", "false"],
  ["C=CCN1C(=O)[C@@]2(O[C@@H](CCO)[C@H]([Si](C)(C)c3ccc(OC)cc3)[C@H]2C)c2cc(N3C(=O)COc4ccccc43)ccc21", "true"],
  ["[N-]=[N+]=NCc1ccccc1[C@@H]1OC(c2ccc(OCCCO)cc2)=N[C@]1(Cc1ccccc1N=[N+]=[N-])C(N)=O", "false"],
  ["[N-]=[N+]=Nc1ccccc1[C@H]1OC(c2ccc(OCCCO)cc2)=N[C@@]1(CCS(=O)(=O)c1ccccc1)C(=O)N1CCOCC1", "true"],
  ["CC(=O)n1cc(C(O)C2C=CC3C(=O)N(c4ccccc4)C(=O)C3N2Nc2ccc(C#N)cc2)c2ccccc21 (stereo not given)", "true"],
  ["CN1C(=O)C2C=CC(C(O)C(c3ccccc3)c3ccccc3)N(Nc3ccccc3)C2C1=O (stereo not given)", "false"],
  ["CN(C)CCCCCCNC(=O)[C@@H]1C[C@@H]2C(=O)N[C@@H](Cc3ccccc3)C(=O)N2[C@@H]1c1cccc(OCCO)c1", "true"],
  ["CO[C@H]1O[C@H](CO)[C@@H](OC(=O)Nc2ccc(C(F)(F)F)cc2)[C@H](OC(=O)Nc2ccccc2)[C@@H]1OC(=O)Nc1ccccc1", "false"],
  ["COCC1C2CC[C@H]3C(OCc4ccc(F)cc4C(F)(F)F)OC[C@]4(C)[C@H]3C2=C(CN4C(=O)OC(C)(C)C)[C@H](C)C1COC (stereo not given in full)", "true"],
  ["O=C1O[C@H](c2ccccc2)[C@H](c2ccccc2)N2[C@H]1[C@@H](C(=O)NC[C@H](O)c1ccccc1)[C@]1(C(=O)Nc3ccc(C#CC4=CCCCC4)cc31)[C@H]2c1ccc(O)cc1", "false"]
]}

* * *

# measured-target: Dihydroorotate dehydrogenase (quinone), mitochondrial (Plasmodium falciparum (isolate 3D7)) (UniProt Q08210)
# Sequence (Q08210 whole entry, looked up): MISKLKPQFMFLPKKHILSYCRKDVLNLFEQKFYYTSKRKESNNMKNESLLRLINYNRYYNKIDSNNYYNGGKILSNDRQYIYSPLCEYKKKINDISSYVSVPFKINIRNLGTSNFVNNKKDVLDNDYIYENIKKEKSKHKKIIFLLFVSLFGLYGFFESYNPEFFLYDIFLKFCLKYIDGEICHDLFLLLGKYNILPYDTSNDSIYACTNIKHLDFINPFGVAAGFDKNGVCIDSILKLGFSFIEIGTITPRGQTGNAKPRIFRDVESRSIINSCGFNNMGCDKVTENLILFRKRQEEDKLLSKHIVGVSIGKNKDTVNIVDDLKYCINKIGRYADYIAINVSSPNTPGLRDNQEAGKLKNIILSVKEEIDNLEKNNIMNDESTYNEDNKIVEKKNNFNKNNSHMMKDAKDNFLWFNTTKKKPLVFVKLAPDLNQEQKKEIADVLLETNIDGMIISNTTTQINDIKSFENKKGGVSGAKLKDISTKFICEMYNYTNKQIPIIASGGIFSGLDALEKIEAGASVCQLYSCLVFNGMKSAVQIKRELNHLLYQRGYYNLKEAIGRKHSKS
# assay-method-text: inhibition of P. falciparum DHODH – biochemical, C-terminal His tag, absorbance 600 nm, primary screen (AID 1175);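 also: recombinant parasite enzyme with a five histidine tag at its C terminus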
# conditions: PfDHODH enzyme, DCIP absorbance 600 nm; higher = more signal, called active from +8 up or from −8 down
Item-by-item account of composite z-score

{"columns": ["molecule", "composite z-score"],
 "data": [
  ["CN(C)CCCC[C@@H]1NC(=O)[C@@H]2C[C@H](C(=O)NCc3ccc(F)cc3)[C@H](c3cccc(OCCO)c3)N2C1=O", -0.366],
  ["O=C1C2C=CC(C(O)CCc3ccccc3)N(Nc3ccccc3)C2C(=O)N1c1ccccc1 (stereo not given)", 0.228],
  ["O=C1O[C@@H](c2ccccc2)[C@@H](c2ccccc2)N2[C@@H](c3ccc(O)cc3)[C@]3(C(=O)Nc4ccccc43)[C@@H](C(=O)NC[C@H](O)c3ccccc3)[C@H]12", 0.609],
  ["O=C1C2C=CC(C(O)C3CC=CCC3)N(n3cnnc3)C2C(=O)N1Cc1ccccc1 (stereo not given)", -0.071],
  ["CCCNC(=O)[C@@]1(C)c2ccccc2C(=O)N(Cc2cc(C(F)(F)F)cc(C(F)(F)F)c2)[C@H]1c1ccc(CO)cc1", -0.241]
]}

* * *

Entries and their z-score values follow.
# assay-method-text: blockers of DNA damage checkpoint Chk1 activation – imaging, HeLa, hydroxyurea, phospho-Chk1 nuclear intensity, primary screen (AID 1187)
# conditions: hydroxyurea-induced phospho-Chk1 immunofluorescence imaging, higher = more signal

{"columns": ["sample-smiles", "z-score"],
 "data": [
  ["CCCNC(=O)[C@@]1(c2ccc([N+](=O)[O-])cc2)CC(=O)N(CC23CC4CC(CC(C4)C2)C3)[C@@H]1c1ccc(CO)cc1I", -0.51],
  ["COc1ccc(C#Cc2ccc3c(c2)[C@]2(C(=O)N3)[C@H](C(=O)N3CCN(c4ncccn4)CC3)[C@H]3C(=O)O[C@H](c4ccccc4)[C@H](c4ccccc4)N3[C@@H]2c2ccc(O)cc2)cc1", -0.298],
  ["NC(=O)[C@]1(Cc2ccccc2)N=C(c2ccc(OCCCO)cc2)O[C@@H]1c1ccccc1", -0.209]
]}

* * *

# measured-target: Follistatin-related protein 3 (Homo sapiens)
# assay-method-text: compounds binding follistatin-related protein 3 – biochemical, small-molecule microarray, 635 nm fluorescence, primary screen (AID 1105);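 also: score merges emission near 667 nm and signal to noise per printed spot across three slides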
# conditions: FSTL3 binding, higher = more signal
Binary call on composite z-score: satisfied from 0.2 upward, not satisfied beneath that.

{"columns": ["compound", "measured-target", "assigned-category"],
 "data": [
  ["CN1C(=O)C2C=CC(C(O)c3ccc(Br)cc3)N(Nc3ccccc3)C2C1=O (stereo not given)", "Follistatin-related protein 3 (Homo sapiens)", "not satisfied"],
  ["CC(=O)n1cc(C(O)C2C=CC3C(=O)N(c4ccccc4)C(=O)C3N2Nc2ccc(C#N)cc2)c2ccccc21 (stereo not given)", "Follistatin-related protein 3 (Homo sapiens)", "not satisfied"],
  ["O=C1O[C@H](c2ccccc2)[C@H](c2ccccc2)N2[C@H]1[C@@H](C(=O)N1CCCCCCC1)[C@]1(C(=O)Nc3ccc(C#CC4=CCCCC4)cc31)[C@H]2c1ccc(O)cc1", "Follistatin-related protein 3 (Homo sapiens)", "satisfied"],
  ["CN(C)CCCC[C@@H]1NC(=O)[C@@H]2C[C@H](C(=O)NCc3ccc(F)cc3)[C@H](c3cccc(OCCO)c3)N2C1=O", "Follistatin-related protein 3 (Homo sapiens)", "satisfied"],
  ["CCOC(=O)C[C@H]1[C@H](OC(=O)c2ccc(C(=O)c3ccccc3)cc2)[C@@H](NC(=O)c2ccc3ccccc3n2)c2cc(OCCCO)ccc2N1C(=O)c1ccc2ccccc2n1", "Follistatin-related protein 3 (Homo sapiens)", "not satisfied"],
  ["O=C1C2C=CC(C(O)c3ccc(B(O)O)cc3)N(Nc3ccc([N+](=O)[O-])cc3)C2C(=O)N1c1ccccc1 (stereo not given)", "Follistatin-related protein 3 (Homo sapiens)", "satisfied"],
  ["CCCCC(=O)N(Cc1ccccc1F)[C@@H]1CC(C(=O)NCCO)=C[C@H](Oc2c(I)cc(CO)cc2OC)[C@H]1O", "Follistatin-related protein 3 (Homo sapiens)", "satisfied"],
  ["CC(C)N1C(=O)c2ccccc2[C@](C)(C(=O)NC2CC2)[C@@H]1c1ccc(CO)cc1", "Follistatin-related protein 3 (Homo sapiens)", "satisfied"],
  ["CCCNC(=O)[C@@]1(C)c2ccccc2C(=O)N(Cc2cc(F)cc(C(F)(F)F)c2)[C@H]1c1ccc(CO)cc1", "Follistatin-related protein 3 (Homo sapiens)", "not satisfied"],
  ["C=CC[C@]1(C(=O)NCCN2CCOCC2)N=C(c2ccc(OCCCO)cc2)O[C@H]1c1ccccc1N=[N+]=[N-]", "Follistatin-related protein 3 (Homo sapiens)", "satisfied"],
  ["C=C(/C(=C/C[C@@H](OC(=O)c1ccncc1)c1ccc(CO)o1)c1cc(C(=O)OC)ccc1OC)C(C)C", "Follistatin-related protein 3 (Homo sapiens)", "satisfied"],
  ["COCCCNC(=O)[C@]1(Cc2ccccc2N=[N+]=[N-])N=C(c2ccc(OCCCO)cc2)O[C@@H]1c1ccccc1CN=[N+]=[N-]", "Follistatin-related protein 3 (Homo sapiens)", "satisfied"],
  ["COc1cc(CO)cc(I)c1O[C@H]1C=C(C(=O)NCCO)C[C@@H](N(CCc2cccc(F)c2)C(=O)CCC2CCCC2)[C@@H]1O", "Follistatin-related protein 3 (Homo sapiens)", "satisfied"],
  ["CN1C(=O)C2C=CC(C(O)C3=C[C@H]4C[C@@H](C3)C4(C)C)N(Nc3ccc([N+](=O)[O-])cc3[N+](=O)[O-])C2C1=O (stereo not given in full)", "Follistatin-related protein 3 (Homo sapiens)", "satisfied"],
  ["CCCNC(=O)[C@@]1(c2ccc([N+](=O)[O-])cc2)CC(=O)N(CC23CC4CC(CC(C4)C2)C3)[C@@H]1c1ccc(CO)cc1I", "Follistatin-related protein 3 (Homo sapiens)", "satisfied"]
]}
